- EXPERIMENTAL_CONDITIONS: in 2-butanone, 319.6 K
MEASURED_ATTRIBUTE: solubility (mole fraction)

COMPOUND | MEASURED_ATTRIBUTE | READING
NC(=O)CS(=O)C(c1ccccc1)c1ccccc1 (stereo unspecified) | solubility (mole fraction) | 0.00429

###

- EXPERIMENTAL_CONDITIONS: in acetone, 303.2 K
MEASURED_ATTRIBUTE: solubility (mole fraction)

COMPOUND | MEASURED_ATTRIBUTE | READING
NC(=O)CS(=O)C(c1ccccc1)c1ccccc1 (stereo unspecified) | solubility (mole fraction) | 0.00321

###

- EXPERIMENTAL_CONDITIONS: in DMF, 300.1 K
MEASURED_ATTRIBUTE: solubility (mole fraction)

COMPOUND | MEASURED_ATTRIBUTE | READING
NC(=O)CS(=O)C(c1ccccc1)c1ccccc1 (stereo unspecified) | solubility (mole fraction) | 0.0784

###

- EXPERIMENTAL_CONDITIONS: in acetone, 290.4 K

COMPOUND | solubility (mole fraction)
NC(=O)CS(=O)C(c1ccccc1)c1ccccc1 (stereo unspecified) | 0.0021

###

- EXPERIMENTAL_CONDITIONS: in acetone, 311.8 K

COMPOUND | solubility (mole fraction)
NC(=O)CS(=O)C(c1ccccc1)c1ccccc1 (stereo unspecified) | 0.00426

###

- EXPERIMENTAL_CONDITIONS: in n-propanol, 314.3 K
MEASURED_ATTRIBUTE: solubility (mole fraction)

MOLECULE | READING
NC(=O)CS(=O)C(c1ccccc1)c1ccccc1 (stereo unspecified) | 0.00362

###

- EXPERIMENTAL_CONDITIONS: in 2-butanone, 332.8 K

COMPOUND | solubility (mole fraction)
NC(=O)CS(=O)C(c1ccccc1)c1ccccc1 (stereo unspecified) | 0.00661

###

- EXPERIMENTAL_CONDITIONS: in ethyl acetate, 312.3 K
MEASURED_ATTRIBUTE: solubility (mole fraction)

MOLECULE | READING
NC(=O)CS(=O)C(c1ccccc1)c1ccccc1 (stereo unspecified) | 0.00141

###

- EXPERIMENTAL_CONDITIONS: in isopropanol, 308.5 K

COMPOUND | solubility (mole fraction)
NC(=O)CS(=O)C(c1ccccc1)c1ccccc1 (stereo unspecified) | 0.00193

###

- EXPERIMENTAL_CONDITIONS: in 2-butanone, 317.8 K

COMPOUND | solubility (mole fraction)
NC(=O)CS(=O)C(c1ccccc1)c1ccccc1 (stereo unspecified) | 0.00401

###

- EXPERIMENTAL_CONDITIONS: in isopropanol, 299.8 K

COMPOUND | solubility (mole fraction)
NC(=O)CS(=O)C(c1ccccc1)c1ccccc1 (stereo unspecified) | 0.00129

###

- EXPERIMENTAL_CONDITIONS: in methanol, 297.5 K
MEASURED_ATTRIBUTE: solubility (mole fraction)

COMPOUND | MEASURED_ATTRIBUTE | READING
NC(=O)CS(=O)C(c1ccccc1)c1ccccc1 (stereo unspecified) | solubility (mole fraction) | 0.00394

###

- EXPERIMENTAL_CONDITIONS: in methanol, 318.2 K

COMPOUND | solubility (mole fraction)
NC(=O)CS(=O)C(c1ccccc1)c1ccccc1 (stereo unspecified) | 0.00891

###

- EXPERIMENTAL_CONDITIONS: in DMF, 311.5 K

COMPOUND | solubility (mole fraction)
NC(=O)CS(=O)C(c1ccccc1)c1ccccc1 (stereo unspecified) | 0.0926

###

- EXPERIMENTAL_CONDITIONS: in DMF, 293.6 K
MEASURED_ATTRIBUTE: solubility (mole fraction)

COMPOUND | MEASURED_ATTRIBUTE | READING
NC(=O)CS(=O)C(c1ccccc1)c1ccccc1 (stereo unspecified) | solubility (mole fraction) | 0.0702

###

- EXPERIMENTAL_CONDITIONS: in n-propanol, 319.9 K

COMPOUND | solubility (mole fraction)
NC(=O)CS(=O)C(c1ccccc1)c1ccccc1 (stereo unspecified) | 0.00475

###

- EXPERIMENTAL_CONDITIONS: in water, 297.5 K

COMPOUND | solubility (mole fraction)
NC(=O)CS(=O)C(c1ccccc1)c1ccccc1 (stereo unspecified) | 8.1e-05

###

- EXPERIMENTAL_CONDITIONS: in DMF, 283.3 K
MEASURED_ATTRIBUTE: solubility (mole fraction)

COMPOUND | READING
NC(=O)CS(=O)C(c1ccccc1)c1ccccc1 (stereo unspecified) | 0.0579

###

- EXPERIMENTAL_CONDITIONS: in ethyl acetate, 322.2 K
MEASURED_ATTRIBUTE: solubility (mole fraction)

COMPOUND | MEASURED_ATTRIBUTE | READING
NC(=O)CS(=O)C(c1ccccc1)c1ccccc1 (stereo unspecified) | solubility (mole fraction) | 0.002

###

- EXPERIMENTAL_CONDITIONS: in n-propanol, 324.8 K

MOLECULE | solubility (mole fraction)
NC(=O)CS(=O)C(c1ccccc1)c1ccccc1 (stereo unspecified) | 0.00585

###

- EXPERIMENTAL_CONDITIONS: in 2-butanone, 307.3 K
MEASURED_ATTRIBUTE: solubility (mole fraction)

COMPOUND | READING
NC(=O)CS(=O)C(c1ccccc1)c1ccccc1 (stereo unspecified) | 0.00278

###

- EXPERIMENTAL_CONDITIONS: in ethyl acetate, 288 K
MEASURED_ATTRIBUTE: solubility (mole fraction)

COMPOUND | READING
NC(=O)CS(=O)C(c1ccccc1)c1ccccc1 (stereo unspecified) | 0.000602

###

- EXPERIMENTAL_CONDITIONS: in n-propanol, 291.9 K

COMPOUND | solubility (mole fraction)
NC(=O)CS(=O)C(c1ccccc1)c1ccccc1 (stereo unspecified) | 0.00131

###

- EXPERIMENTAL_CONDITIONS: in acetone, 278.2 K
MEASURED_ATTRIBUTE: solubility (mole fraction)

COMPOUND | READING
NC(=O)CS(=O)C(c1ccccc1)c1ccccc1 (stereo unspecified) | 0.00141

###

- EXPERIMENTAL_CONDITIONS: in ethyl acetate, 303.5 K
MEASURED_ATTRIBUTE: solubility (mole fraction)

COMPOUND | READING
NC(=O)CS(=O)C(c1ccccc1)c1ccccc1 (stereo unspecified) | 0.001

###

- EXPERIMENTAL_CONDITIONS: in acetonitrile, 311.1 K
MEASURED_ATTRIBUTE: solubility (mole fraction)

MOLECULE | MEASURED_ATTRIBUTE | READING
NC(=O)CS(=O)C(c1ccccc1)c1ccccc1 (stereo unspecified) | solubility (mole fraction) | 0.00292

###

- EXPERIMENTAL_CONDITIONS: in 2-butanone, 329.4 K
MEASURED_ATTRIBUTE: solubility (mole fraction)

COMPOUND | READING
NC(=O)CS(=O)C(c1ccccc1)c1ccccc1 (stereo unspecified) | 0.0059

###

- EXPERIMENTAL_CONDITIONS: in isopropanol, 287.9 K
MEASURED_ATTRIBUTE: solubility (mole fraction)

COMPOUND | MEASURED_ATTRIBUTE | READING
NC(=O)CS(=O)C(c1ccccc1)c1ccccc1 (stereo unspecified) | solubility (mole fraction) | 0.00086

###

- EXPERIMENTAL_CONDITIONS: in ethanol, 280.6 K
MEASURED_ATTRIBUTE: solubility (mole fraction)

COMPOUND | READING
NC(=O)CS(=O)C(c1ccccc1)c1ccccc1 (stereo unspecified) | 0.000668

###

- EXPERIMENTAL_CONDITIONS: in methanol, 277.9 K

MOLECULE | solubility (mole fraction)
NC(=O)CS(=O)C(c1ccccc1)c1ccccc1 (stereo unspecified) | 0.00189

###

- EXPERIMENTAL_CONDITIONS: in 2-butanone, 281 K

COMPOUND | solubility (mole fraction)
NC(=O)CS(=O)C(c1ccccc1)c1ccccc1 (stereo unspecified) | 0.00114

###

- EXPERIMENTAL_CONDITIONS: in ethanol, 294.2 K

COMPOUND | solubility (mole fraction)
NC(=O)CS(=O)C(c1ccccc1)c1ccccc1 (stereo unspecified) | 0.00111

###

- EXPERIMENTAL_CONDITIONS: in water, 309.5 K

COMPOUND | solubility (mole fraction)
NC(=O)CS(=O)C(c1ccccc1)c1ccccc1 (stereo unspecified) | 0.00013
